ENDPOINT_LABEL: melting point

| COMPOUND | ENDPOINT_LABEL | TEST_VALUE |
| --- | --- | --- |
| C[C@@]12CC[C@@H]3[C@@](CC[C@H]4[C@@]3(C)CCC[C@@]4(C)C(=O)OCC(=O)NCc3cn(-c4ccccc4)nn3)(CC1=O)C2 [Compound 5a] | melting point | 83 to 84 °C |
| C[C@@]12CC[C@@H]3[C@@](CC[C@H]4[C@@]3(C)CCC[C@@]4(C)C(=O)OCC(=O)NCc3cn(-c4ccc(Cl)cc4)nn3)(CC1=O)C2 [Compound 5b] | melting point | 80 to 82 °C |
| COc1ccc(-n2cc(CNC(=O)COC(=O)[C@]3(C)CCC[C@@]4(C)[C@@H]5CC[C@@]6(C)C[C@]5(CC[C@@H]43)CC6=O)nn2)cc1 [Compound 5c] | melting point | 71 to 72 °C |
| C[C@@]12CC[C@@H]3[C@@](CC[C@H]4[C@@]3(C)CCC[C@@]4(C)C(=O)OCC(=O)Nc3cccc(Cl)c3)(CC1=O)C2 [Compound 4c] | melting point | 120 to 122 °C |
| C[C@@]12CC[C@@H]3[C@@](CC[C@H]4[C@@]3(C)CCC[C@@]4(C)C(=O)OCC(=O)Nc3ccccc3F)(CC1=O)C2 [Compound 4e] | melting point | 168 to 169 °C |
| C[C@@]12CC[C@@H]3[C@@](CC[C@H]4[C@@]3(C)CCC[C@@]4(C)C(=O)OCC(=O)Nc3ccc(F)cc3)(CC1=O)C2 [Compound 4g] | melting point | 140 to 141 °C |

Source listed as paper PMC6337650.
